Provenance of the data: PubChem BioAssay AID652104

test: qHTS of TDP-43 Inhibitors; details: TDP-43 expressing yeast growth rescue, BacTiter-Glo, 24 h; series mostly up to 46.1 µM; also: nearly all actives have a fitted effect of over 50% in size
Among all 410,000 compounds or so, about 7,200 (1.8%) were called active. About 7% were inconclusive and are not listed. Calls follow the shape of the dose curve; as a rule, active = well fitted activation curve with a large enough effect; inconclusive = small, poorly fitted or top-dose-only effect, or another doubt; inactive = no such curve, though single readings can be large or run the other way. The sample holds actives, similar compounds and a random draw of the others, so the mix is not that of the screen.
Could you please pick one outcome from this set? active, inactive

Use the examples below as a reference point.
- molecule: "Oc1ccc(-c2cccc(-c3ccc(O)cc3)c2)cc1"
  assigned class: "active"
- molecule: "COc1ccc(CN2CC(C(=O)NC3CCCCC3)CC2=O)cc1 (configuration not stated)"
  assigned class: "inactive"
- molecule: "COCCNC(=O)c1ccc(S(=O)(=O)c2ccc(Cl)cc2)c(NC(C)=O)c1"
  assigned class: "inactive"
- molecule: "CC(=O)Nc1cc(C(=O)NCc2ccc(F)cc2)ccc1Sc1ccc(F)cc1"
  assigned class: "active"
- molecule: "Cc1nn(-c2ccccc2)c(-n2cccc2)c1C(=O)O"
  assigned class: "inactive"

Task: For `COc1ccc(CN2CN(C3CCCC3)CSC2=S)cc1` , what call appears in the results of this test?
Output: active

Task: // return assay outcome for `O=C(OCc1ccc(-c2ccccc2)cc1)c1cccc(O)c1`
Output: inactive

Task: I'd appreciate the recorded outcome for `CC(C)c1ccc(NC(=O)c2ccc3c(O)c(S(=O)(=O)c4ccccc4)c(=O)[nH]c3c2)cc1` from this test.
Output: inactive

Task: I would be grateful if you could indicate the recorded call for `COc1cc(C(=O)NCCS(=O)(=O)N2CCN(c3ccccc3)CC2)cc(OC)c1OC` .
Output: inactive

Task: Assay result, entry `O=C(c1c(F)cccc1Cl)N1CCN(S(=O)(=O)c2ccc3c(c2)OCCCO3)CC1` — outcome?
Output: active

Task: Called result for `Cc1ccc(Sc2ccc(NC(=O)c3ccc(F)cc3)cc2C#N)cc1`
Output: inactive

Task: What classification did `CCN(CCCNC(=O)c1ccc(Sc2ccc(C)cc2)c(NC(C)=O)c1)c1cccc(C)c1` end up with in this test?
Output: inactive

---

assay: qHTS of TDP-43 Inhibitors; settings: TDP-43 expressing yeast growth rescue, BacTiter-Glo, 24 h; series mostly up to 46.1 µM; also: nearly all actives have a fitted effect of over 50% in size
Out of some 410,000 compounds screened, about 7,200 (1.8%) were called active. About 7% were inconclusive and are not listed. Calls follow the shape of the dose curve; as a rule, active = well fitted activation curve with a large enough effect; inconclusive = small, poorly fitted or top-dose-only effect, or another doubt; inactive = no such curve, though single readings can be large or run the other way. Many of the other results were omitted from the sample, so actives are more common in it than they were.
Can you answer with just one of these options? active, inactive

Below are worked cases with known answers.
- compound: "C=CCn1c(-c2ccc3[nH]c(C)c(C)c3c2)n[nH]c1=S"
  assigned class: "inactive"
- compound: "C/C(=N\\NC(=O)Cc1ccccc1[N+](=O)[O-])c1cccnc1"
  assigned class: "inactive"
- compound: "O=C(/C=C/c1ccc(Cl)c([N+](=O)[O-])c1)c1cccnc1"
  assigned class: "active"

Then there is this compound:
Task: Lab log entry: CCOc1ccc(C2CC(=O)c3c([nH]c(C(=O)OCc4ccccc4)c3C)C2)cc1 (stereo not drawn) — outcome as called in the assay?
Output: inactive

---

assay: qHTS of TDP-43 Inhibitors; conditions: TDP-43 expressing yeast growth rescue, BacTiter-Glo, 24 h; series mostly up to 46.1 µM; also: nearly all actives have a fitted effect of over 50% in size; also: potency is read from the fitted curve at half-maximal effect
Screen size: about 410,000 compounds; about 7,200 (1.8%) were called active. About 7% were inconclusive and are not listed. What follows is part of a selection rich in actives, with near analogues and random picks from the rest.
measurement type: Potency

Consider the worked cases shown below.
- compound: "Cc1ccc2nc(-c3ccccc3)c(CC3CCCCC3)n2c1"
  Potency: "inactive"
- compound: "Clc1cccc(Cc2c(-c3cccc(Cl)c3)nc3ccc(Cl)cn23)c1"
  Potency: "12.6 µM (active)"
- compound: "CC(C)C1Cc2[nH][nH]c(=O)c2C(c2ccc(Cl)cc2)O1 (stereo unspecified)"
  Potency: "20 µM (active)"
- compound: "CC(C)C1CC2=C(C(=O)OC(C)(C)O2)C(c2ccc(F)cc2)O1 (stereo unspecified)"
  Potency: "inactive"
- compound: "CCCc1nc2c3ccccc3ccn2c1Cc1ccccc1C(F)(F)F"
  Potency: "inactive"
- compound: "Nc1ncc(S(=O)(=O)Nc2ccc(OC(F)(F)F)cc2)cn1"
  Potency: "inactive"
- compound: "Cc1ccc(Cc2c(-c3ccco3)nc3ccc(Cl)cn23)cc1"
  Potency: "6.31 µM (active)"
- compound: "CN1CCN(Cc2c(C(=O)N3CCc4ccccc4C3)nc3ccc(Cl)cn23)CC1"
  Potency: "inactive"

Can you give me Potency for all of these, one by one?
1. O=C(O)c1ccc(NS(=O)(=O)c2cccc3nsnc23)cc1
2. O=S(=O)(Nc1ccc(OC(F)(F)F)cc1)c1cccc2nonc12
3. c1ccc(Cc2c(-c3ccco3)nc3c4ccccc4ccn23)cc1

Output:
1. inactive
2. 11.2 µM (active)
3. 35.5 µM (active)

---

test: qHTS of TDP-43 Inhibitors; conditions: TDP-43 expressing yeast growth rescue, BacTiter-Glo, 24 h; series mostly up to 46.1 µM; also: nearly all actives have a fitted effect of over 50% in size
About 7,200 (1.8%) of roughly 410,000 compounds were called active. Inconclusive results (about 7%) are left out. Calls follow the shape of the dose curve; as a rule, active = well fitted activation curve with a large enough effect; inconclusive = small, poorly fitted or top-dose-only effect, or another doubt; inactive = no such curve, though single readings can be large or run the other way. The sample holds actives, similar compounds and a random draw of the others, so the mix is not that of the screen.
Answer with one of the outcomes given here: t for active, f for inactive

- molecule: "O=C(Nc1cccc(F)c1)NC1CCCc2ccccc21 (stereo not given)"
  assigned class: "t"

Shifting focus to the molecule that follows.
Task: Which result was noted for this molecule in the test: Cc1cc2c(cc1C)C(c1cccc(OC(C)C)c1)CC(=O)N2 (stereo not given)
Output: f

---

experiment: qHTS of TDP-43 Inhibitors; conditions: TDP-43 expressing yeast growth rescue, BacTiter-Glo, 24 h; series mostly up to 46.1 µM; also: nearly all actives have a fitted effect of over 50% in size
Screen size: about 410,000 compounds; about 7,200 (1.8%) were called active. About 7% were inconclusive and are not listed. The call rests on the fitted dose curve; in most records, active means well fitted activation curve with a large enough effect; inconclusive means small, poorly fitted or top-dose-only effect, or another doubt; inactive means no such curve, though single readings can be large or run the other way. Shown is part of a subset that was picked to be rich in actives.
Use one of these outcomes when replying: y = active, n = inactive

Check out these entries, answers already filled in.
- molecule: "CCCCNC(=O)c1ccc2c(c1)NC(=O)C(C(C)C)N2 (configuration not stated)"
  assigned class: "n"
- molecule: "CCC(=O)N1CCc2cc(CNC(=O)Nc3ccccc3Cl)ccc21"
  assigned class: "n"
- molecule: "C[n+]1ccc(/C=C/c2c[nH]c3ccccc23)cc1"
  assigned class: "n"
- molecule: "CCOc1ccc(NC(=O)C(CC(C)C)N2Cc3ccccc3C2=O)cc1 (configuration not stated)"
  assigned class: "n"
- molecule: "COCCCNc1ccn2nc(-c3ccc(CC(C)C)cc3)cc2n1"
  assigned class: "y"

Task: What is the recorded call for this molecule in the test? `COc1cc(NC(=O)c2cc([N+](=O)[O-])ccc2Br)ccc1NC(=O)c1ccco1`
Output: y

Task: Dear all, I need the recorded test outcome for `CCn1nccc1C(=O)Nc1ccc(S(=O)(=O)NC23CC4CC(CC(C4)C2)C3)cc1` , thank you.
Output: n

Task: Test call for this molecule, please: `Cc1nnc(-c2ccc(Oc3ccc(C)c(C)c3)c([N+](=O)[O-])c2)o1`
Output: y

Task: What did the test return for `COc1ccc(OCCCn2c(C)nc3cc(C)c(C)cc32)cc1` ?
Output: n

Task: Please indicate how the test categorized Cc1ccc(S(=O)Cc2ccc(C(=O)N3CCN(C4CCCCC4)CC3)o2)cc1 (configuration not stated) .
Output: n

Task: Please state the recorded outcome for this molecule: COc1ccc(C2=CC(c3ccccc3Cl)n3nc(-c4ccc(Cl)cc4)nc3N2)cc1 (configuration not stated)
Output: n

Task: Kindly provide the recorded test outcome for the following molecule: `Cc1c(-c2nc(-c3ccc4c(c3)OCO4)no2)nnn1-c1ccc(Br)cc1F`
Output: n

Task: Query: recorded result category for `CCOC(=O)c1c(NC(=O)c2cc(CC)on2)sc(C(C)=O)c1C` in this test
Output: n

Task: Entry `COc1ccc(OCC(=O)Nc2cc(C)c(Cl)cc2OC)c([N+](=O)[O-])c1` : call = ?
Output: n

Task: Please indicate how the test categorized `O=C(c1ccc(Cl)cc1)n1nc(-c2cccnc2)nc1NCc1ccc(F)cc1` .
Output: n

Task: Fill in: this test's call for Cc1ccc(NC(=O)c2cn3c4c(ccc(Cl)c4c2=O)OC(C)C3)cc1C (configuration not stated) is ___
Output: n

---

Test: qHTS of TDP-43 Inhibitors; also: nearly all actives have a fitted effect of over 50% in size
Conditions: TDP-43 expressing yeast growth rescue, BacTiter-Glo, 24 h; series mostly up to 46.1 µM
From the text: The goal of this project is to identify new chemical probes capable of reversing the toxicity associated with TDP-43 which is associated with frontotemporal lobar degeneration and amyotrophic lateral sclerosis. […] To this end, a miniaturized assay was developed to be screened against the Molecular Libraries Small Molecule Repository (MLSMR) to discover TDP-43 inhibitors. Please note that in the set-up this yeast-based assay compounds that inhibit as TDP-43, have a read-out as activators. […]
Out of some 410,000 compounds screened, about 7,200 (1.8%) were called active. Not shown: some 7% with an inconclusive outcome. Calls follow the shape of the dose curve; as a rule, active = well fitted activation curve with a large enough effect; inconclusive = small, poorly fitted or top-dose-only effect, or another doubt; inactive = no such curve, though single readings can be large or run the other way. The sample as a whole holds a higher share of actives than the screen did.
Please state which outcome applies, choosing from active, inactive

- molecule: "O=C(O)Cn1c(Cc2ccccc2)nc2ccccc21"
  assigned class: "inactive"
- molecule: "O=C(CCn1ccc2cc(S(=O)(=O)N3CCCC3)ccc21)NCc1cccc(Cl)c1"
  assigned class: "inactive"

Task: What outcome does the record of this test show for `Cn1c(=O)c2c(ncn2CC(=O)Nc2cccc(C(F)(F)F)c2)n(C)c1=O` ?
Output: inactive

Task: Assay result, entry CC(C)OP(=O)(OC(C)C)C(Nc1ccccc1)c1cccc([N+](=O)[O-])c1 (configuration not stated) — outcome?
Output: inactive
